Target: purified STEP46 enzyme (Homo sapiens)
Sequence (P54829 1-565): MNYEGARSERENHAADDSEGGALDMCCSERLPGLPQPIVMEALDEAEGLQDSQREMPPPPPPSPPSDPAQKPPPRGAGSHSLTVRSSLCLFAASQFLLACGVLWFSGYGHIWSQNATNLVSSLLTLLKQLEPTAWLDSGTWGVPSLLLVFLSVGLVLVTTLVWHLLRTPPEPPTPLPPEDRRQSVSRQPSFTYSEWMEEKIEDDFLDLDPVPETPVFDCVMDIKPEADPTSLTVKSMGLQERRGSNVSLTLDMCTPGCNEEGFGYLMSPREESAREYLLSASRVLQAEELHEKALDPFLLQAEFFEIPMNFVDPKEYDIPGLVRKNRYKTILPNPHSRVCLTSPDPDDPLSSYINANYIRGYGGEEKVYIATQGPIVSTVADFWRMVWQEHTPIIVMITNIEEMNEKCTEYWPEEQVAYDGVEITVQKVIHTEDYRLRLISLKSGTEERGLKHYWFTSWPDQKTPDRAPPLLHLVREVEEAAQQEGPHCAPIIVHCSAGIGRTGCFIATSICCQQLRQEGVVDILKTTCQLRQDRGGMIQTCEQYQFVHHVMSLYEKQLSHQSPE
pIC50: −log10 of the molar value.
Reported pIC50 by item:

Q: Can you share its pIC50? I mean this compound: COc1ccc2nc(-c3cccnc3)nc(Oc3ccccc3)c2c1
A: 5.00 to 6.00

Q: Further, for CN(C)c1cccc(-c2ccc3nc(-c4cccnc4)nc(Nc4ccc(F)c(Cl)c4)c3c2)c1 ?
A: > 6.00

Q: Further, for CNc1nc(-c2cccnc2)nc2c(C)c(-c3ccccc3F)ccc12 ?
A: 5.00 to 6.00

Q: Further, for NC(=O)c1ccccc1Nc1nc(-c2cccnc2)nc2cc(-c3cc(F)ccc3F)ccc12 ?
A: > 6.00

Q: Further, for Cc1cccc2c(Nc3cc(Cl)cc(Cl)c3)nc(-c3cnccn3)nc12 ?
A: 5.00 to 6.00

Q: Further, for CCOc1ccc2nc(-c3cccnc3)nc(Nc3ccc4c(c3)NC(=O)CO4)c2c1 ?
A: > 6.00

Q: Further, for CNc1nc(-c2cccnc2)nc2ccc(-c3cc(OC)cc(OC)c3)cc12 ?
A: 5.00 to 6.00

Q: Further, for Fc1cccc(-c2ccc3nc(-c4cccnc4)nc(NC4CCCCC4)c3c2)c1F ?
A: < 5.00

----------
Target sequence: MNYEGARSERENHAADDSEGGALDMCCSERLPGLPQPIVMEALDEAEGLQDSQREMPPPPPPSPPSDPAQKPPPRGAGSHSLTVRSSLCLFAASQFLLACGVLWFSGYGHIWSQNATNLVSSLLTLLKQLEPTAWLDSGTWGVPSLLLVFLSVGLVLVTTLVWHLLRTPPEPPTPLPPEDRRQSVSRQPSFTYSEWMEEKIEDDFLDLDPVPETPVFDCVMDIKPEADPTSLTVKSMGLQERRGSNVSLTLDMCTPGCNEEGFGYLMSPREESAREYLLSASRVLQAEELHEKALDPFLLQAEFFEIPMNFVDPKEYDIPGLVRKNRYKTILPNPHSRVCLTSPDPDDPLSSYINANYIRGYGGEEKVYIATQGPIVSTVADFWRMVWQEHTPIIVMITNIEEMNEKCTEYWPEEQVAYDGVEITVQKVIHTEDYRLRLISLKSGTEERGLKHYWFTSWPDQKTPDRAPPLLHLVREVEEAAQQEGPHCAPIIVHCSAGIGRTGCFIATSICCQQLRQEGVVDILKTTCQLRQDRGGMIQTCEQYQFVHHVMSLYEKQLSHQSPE
pIC50: −log10 of the molar value.
Reported pIC50 by item:

Fc1ccc(Nc2nc(-c3cccnc3)nc3ccc(-c4ccccc4)cc23)cc1Cl; 5.00 to 6.00
Fc1ccc(-c2ccc3c(Nc4ccc(F)c(Cl)c4)nc(-c4cccnc4)nc3c2)cc1; > 6.00
Fc1ccc(Nc2nc(-c3cccnc3)nc3ccc(-c4ccccc4Cl)cc23)cc1Cl; < 5.00
COc1ccc2nc(-c3cccnc3)nc(Nc3ccccc3C(=O)NCCC(F)(F)F)c2c1; 5.00 to 6.00
CNc1nc(-c2cccnc2)nc2cc(C)c(-c3ccc(OC)cc3)cc12; 5.00 to 6.00
COc1ccc2nc(-c3cccnc3)nc(Nc3nc(-c4cc(F)cc(F)c4)cs3)c2c1; 5.00 to 6.00
COc1ccc2nc(-c3cnccn3)nc(Nc3ccc(F)c(Cl)c3)c2c1; 5.00 to 6.00
Fc1ccc(Nc2nc(-c3cccnc3)nc3ccc(-c4cccs4)cc23)cc1Cl; 5.00 to 6.00
CCOc1ccc2nc(-c3cncnc3)nc(Nc3ccccc3C(N)=O)c2c1; 5.00 to 6.00
CCOc1cccc(-c2ccc3nc(-c4cccnc4)nc(Nc4ccc(F)c(Cl)c4)c3c2)c1; > 6.00

Q: Can you share its pIC50? I mean this compound: CNc1nc(-c2cccnc2)nc2ccc(-c3ccc(F)c(F)c3F)cc12
A: 5.00 to 6.00

Q: Further, for Cc1cccc(-c2ccc3c(Nc4ccc(F)c(Cl)c4)nc(-c4cccnc4)nc3c2)c1 ?
A: > 6.00

Q: Further, for N#Cc1cccc(Nc2nc(-c3ccnnc3)nc3ccccc23)c1 ?
A: 5.00 to 6.00

Q: Further, for Fc1ccc(-c2ccc3nc(-c4cccnc4)nc(Nc4ccc(F)c(Cl)c4)c3c2)cc1F ?
A: 5.00 to 6.00

Q: Further, for CN(C)C(=O)COc1ccc2nc(-c3cccnc3)nc(Oc3ccc(F)c(Cl)c3)c2c1 ?
A: 5.00 to 6.00

Q: Further, for Fc1cc(F)cc(-c2ccc3c(Nc4ccc(F)c(Cl)c4)nc(-c4cccnc4)nc3c2)c1 ?
A: > 6.00

Q: Further, for COc1ccc2nc(-c3cccnc3)nc(Nc3nnc(-c4ccc(Br)cc4)s3)c2c1 ?
A: 5.00 to 6.00
